assay-system: S. pneumoniae GAPN (Streptococcus pneumoniae, UniProt A0A0H2ZNN4)
Construct: N-terminal 6xHis tag, pET21b (NdeI), E. coli BL21(DE3); tag removal not mentioned; homotetramer; catalytic C283
Sequence (A0A0H2ZNN4 entry or part of it): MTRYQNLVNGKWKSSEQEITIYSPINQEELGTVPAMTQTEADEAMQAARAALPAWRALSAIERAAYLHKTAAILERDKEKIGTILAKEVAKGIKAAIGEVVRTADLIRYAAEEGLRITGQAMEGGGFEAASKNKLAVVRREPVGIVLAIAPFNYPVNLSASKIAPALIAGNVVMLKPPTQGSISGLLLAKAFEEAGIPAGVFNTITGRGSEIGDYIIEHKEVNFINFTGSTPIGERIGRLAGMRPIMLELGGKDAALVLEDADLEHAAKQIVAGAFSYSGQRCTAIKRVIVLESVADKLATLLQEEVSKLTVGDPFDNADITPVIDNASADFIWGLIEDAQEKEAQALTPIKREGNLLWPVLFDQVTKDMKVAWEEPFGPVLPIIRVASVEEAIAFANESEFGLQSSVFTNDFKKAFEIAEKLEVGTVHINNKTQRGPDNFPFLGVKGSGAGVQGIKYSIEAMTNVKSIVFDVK
method-summary: isothermal titration calorimetry
Assay type: binding
parameter-measured: Kd (µM)
Report only the number, with the unit µM understood.

Measured Kd, NC(=O)c1ccc[n+]([C@@H]2O[C@H](COP(=O)(O)OP(=O)(O)OC[C@H]3O[C@@H](n4cnc5c(N)ncnc54)[C@H](OP(=O)(O)O)[C@@H]3O)[C@@H](O)[C@H]2O)c1 : 51

====

assay-system: S. pneumoniae GAPN (Streptococcus pneumoniae, UniProt A0A0H2ZNN4)
parameter-measured: Ki (µM)
Report only the number, with the unit µM understood.

Measured Ki, O=C[C@H](O)[C@H](O)COP(=O)(O)O : 25.7

====

assay-system: S. pneumoniae GAPN (Streptococcus pneumoniae)
Construct: N-terminal 6xHis tag, pET21b (NdeI), E. coli BL21(DE3); tag removal not mentioned; homotetramer; catalytic C283
method-summary: isothermal titration calorimetry
Type: binding
experimental-context: read-out: K D
parameter-measured: Kd (nM)
Report only the number, with the unit nM understood.

Measured Kd, O=C[C@H](O)COP(=O)(O)O [G3P] : 53
